- Test system: SF-295 CNS
- procedureText: NCI tumour cell line growth inhibition, 48 h
As shown below, each of these compounds has a reported TGI value.

[
  {
    "compound": "c1ccc2cc3c(cc2c1)Nc1c2ccccc2nc2cccc-3c12",
    "unitOfMeasure": "µM",
    "censoringOperator": "=",
    "TGI": 2.96
  },
  {
    "compound": "O=C(c1ccco1)N(C(=S)N1CCN(c2ccccc2)CC1)C1CCCCC1",
    "unitOfMeasure": "µM",
    "censoringOperator": ">",
    "TGI": 100
  },
  {
    "compound": "CC(=O)Oc1ccc2c(c1)[C@@]1(C)CCCC(C)(C)[C@@H]1CC2",
    "unitOfMeasure": "µM",
    "censoringOperator": "=",
    "TGI": 56.6
  },
  {
    "compound": "CC1(C)CCCC2(C)C3C(O)CC2(C)C(O)C31 (stereo not given)",
    "unitOfMeasure": "µM",
    "censoringOperator": ">",
    "TGI": 100
  },
  {
    "compound": "CCCOc1cc2ccccc2cc1C(=O)Nc1nc(NC)c2c(ccc3nccc32)[nH]1",
    "unitOfMeasure": "µM",
    "censoringOperator": "=",
    "TGI": 1.2
  },
  {
    "compound": "O=NN1C(c2ccccc2)C2CCCC(C2=O)C1c1ccccc1 (stereo not given)",
    "unitOfMeasure": "µM",
    "censoringOperator": ">",
    "TGI": 84.2
  },
  {
    "compound": "CN(CCO)Cc1ncccc1O",
    "unitOfMeasure": "µM",
    "censoringOperator": ">",
    "TGI": 100
  },
  {
    "compound": "CCCCCCCCCC[C@@H](O)[C@@H]1CC[C@@H]([C@@H]2CC[C@@H]([C@@H](O)CCCCCCCCCC[C@H](O)CC3=CC(C)OC3=O)O2)O1 (stereo not given in full)",
    "unitOfMeasure": "µM",
    "censoringOperator": ">",
    "TGI": 100
  },
  {
    "compound": "C=C1C(=O)O[C@H]2C1C[C@@H](O)/C(C)=C/CC[C@@]1(C)O[C@H]21 (stereo not given in full)",
    "unitOfMeasure": "µM",
    "censoringOperator": ">",
    "TGI": 100
  },
  {
    "compound": "Cc1ccc(S(=O)(=O)OCC#CCOS(=O)(=O)c2ccc(C)cc2)cc1",
    "unitOfMeasure": "µM",
    "censoringOperator": "=",
    "TGI": 3.62
  }
]

====

- Test system: SN12C renal
- procedureText: NCI tumour cell line growth inhibition, 48 h
*1 amine or outer side, *2 acyl side, *3 side chain or, on linkers, in order; H or OH if unused. Where a SMILES comes first, the peptide text is derived from it. [ ]: non-standard residue; d: D form. The star is where a group is joined. ξ: configuration not given here. NMeY = CN[C@@H](Cc1ccc(O)cc1)C(=O)O; Ethylenediamine = C(CN[*:2])N[*:1]; ξNMeL = CNC(CC(C)C)C(=O)O; Cbz = O=C(OCc1ccccc1)*; Lac = C[C@H](O)C(=O)O; ξA = CC(N)C(=O)O
readoutType: TGI

[
  {
    "compound": "CCc1cccc(C(C)C)c1NC(=O)CCl",
    "readoutType": "TGI",
    "reading": "> 100 µM"
  },
  {
    "compound": "Cn1c2c(c3ccccc31)CCN=C2C1CCCOC1=O (stereo unspecified)",
    "readoutType": "TGI",
    "reading": "> 100 µM"
  },
  {
    "compound": "N#Cc1c(C#N)c(-c2ccccc2)n(Cc2ccccc2)c1N",
    "readoutType": "TGI",
    "reading": "> 100 µM"
  },
  {
    "compound": "CSc1nc(Nc2ccccc2Cl)c2c(N)nn(C)c2n1",
    "readoutType": "TGI",
    "reading": "> 100 µM"
  },
  {
    "compound": "O=C(O)Cc1ccc(Nc2nc3ccccc3nc2C(=O)O)cc1",
    "readoutType": "TGI",
    "reading": "> 100 µM"
  },
  {
    "compound": "Cc1c(Cl)c(=O)oc2cc(OC/C=C3\\CCC(=O)O3)ccc12",
    "readoutType": "TGI",
    "reading": "41.4 µM"
  },
  {
    "compound": "CCC1C(C#N)=C(O)NC(O)=C1C#N",
    "readoutType": "TGI",
    "reading": "> 100 µM"
  },
  {
    "compound": "CC1C2CCC3C(O)C2(CC(O)C2(O)C1CC(O)C2(C)C)CC3(C)O (stereo unspecified)",
    "readoutType": "TGI",
    "reading": "> 100 µM"
  },
  {
    "compound": "N#Cc1c(-c2ccccc2)cc(-c2ccc(N)cc2)[nH]c1=O",
    "readoutType": "TGI",
    "reading": "> 100 µM"
  },
  {
    "compound": "COc1cc2oc(=O)cc(C)c2c(OC)c1O",
    "readoutType": "TGI",
    "reading": "> 100 µM"
  },
  {
    "compound": "Nc1ccc(-c2cc(C(=O)Nc3nccs3)[nH]c(=S)n2)cc1",
    "readoutType": "TGI",
    "reading": "> 100 µM"
  },
  {
    "compound": "[N-]=[N+]=NC1(c2ccccc2)C(=O)C(Cl)=C(c2ccccc2)N(c2ccccc2)C1=O (stereo unspecified)",
    "readoutType": "TGI",
    "reading": "> 100 µM"
  },
  {
    "compound": "Cc1c[nH]c(C(=O)O)c1-c1cccn1-c1ccc(Cl)cc1[N+](=O)[O-]",
    "readoutType": "TGI",
    "reading": "> 100 µM"
  },
  {
    "compound": "CNC(=O)N(CCC#N)CCN(C(=O)N(C)C)c1ccccc1",
    "readoutType": "TGI",
    "reading": "> 100 µM"
  },
  {
    "compound": "COc1ccc(C[C@@H](C(=O)NCCNC(=O)C(CC(C)C)N(C)C(=O)[C@@H]2CCCN2C(=O)[C@H](C)O)N(C)C(=O)[C@@H]2CCCN2C(=O)[C@H](CC(C)C)NC(=O)C(C)NC(=O)OCc2ccccc2)cc1 (stereo partly specified) (Cbz-[ξA]LP[NMeY](Me)-{Ethylenediamine-ξNMeL-Pro-Lac})",
    "readoutType": "TGI",
    "reading": "> 100 µM"
  },
  {
    "compound": "CN(C)CCNCc1ccc2c(-c3ccccc3)nc3cc(Cl)c(Cl)cc3n12",
    "readoutType": "TGI",
    "reading": "24.2 µM"
  },
  {
    "compound": "C=C1c2ccccc2C(=O)c2c1c1c(C(=O)OC)c(OC(=O)OCc3ccc([N+](=O)[O-])cc3)ccc1n2Cc1ccccc1",
    "readoutType": "TGI",
    "reading": "42.6 µM"
  },
  {
    "compound": "CCOC(=O)/C(=C\\NC(C)(C)C)c1nc2ccccc2[nH]1",
    "readoutType": "TGI",
    "reading": "75.6 µM"
  },
  {
    "compound": "C[C@@H](CC(=O)O)OC1OC(COC(=O)C(C)(C)C)C(OC(=O)C(C)(C)C)C(OC(=O)C(C)(C)C)C1OC(=O)C(C)(C)C (stereo partly specified)",
    "readoutType": "TGI",
    "reading": "> 100 µM"
  },
  {
    "compound": "Cc1cc(S(=O)(=O)Nc2nnc3c4ccccc4cnn23)c(S)cc1Cl",
    "readoutType": "TGI",
    "reading": "> 100 µM"
  },
  {
    "compound": "Nc1c(OCC(=O)O)ccc2cc(S(=O)(=O)O)ccc12",
    "readoutType": "TGI",
    "reading": "> 100 µM"
  },
  {
    "compound": "CCOC(=O)Nc1nc2ccccc2[nH]1",
    "readoutType": "TGI",
    "reading": "> 100 µM"
  },
  {
    "compound": "O=C(O)[C@@H]1OCCOCCO[C@@H](C(=O)O)[C@H](C(=O)O)OCCOCCO[C@H]1C(=O)O",
    "readoutType": "TGI",
    "reading": "> 100 µM"
  },
  {
    "compound": "C[N+](C)(C)CC1CCC(C[N+](C)(C)C)C1=O (stereo unspecified)",
    "readoutType": "TGI",
    "reading": "8.18 µM"
  },
  {
    "compound": "CC(C)=Cc1cc(C)c2c3c(c(O)c(O)c(C)c13)C(C)=CC2=O",
    "readoutType": "TGI",
    "reading": "> 100 µM"
  },
  {
    "compound": "CNC(=O)c1cc(Oc2cccc3nc(NC(=O)Nc4cc(C(F)(F)F)cc(C(F)(F)F)c4)ccc23)ccn1",
    "readoutType": "TGI",
    "reading": "> 100 µM"
  },
  {
    "compound": "COc1cccc(-c2nn(-c3ccccc3)cc2-c2ccnc(NCCCNC(=O)c3cccc(C(F)(F)F)c3)c2)c1",
    "readoutType": "TGI",
    "reading": "38.5 µM"
  },
  {
    "compound": "[N-]=[N+]=NCCCn1c2c(c3ccc([N+](=O)[O-])cc3c1=O)C(=O)c1cc3c(cc1-2)OCO3",
    "readoutType": "TGI",
    "reading": "0.95 µM"
  },
  {
    "compound": "CCOC(=O)c1nc2ccccc2n(CC)c1=O",
    "readoutType": "TGI",
    "reading": "> 100 µM"
  },
  {
    "compound": "Cc1coc2c1C(=O)C(=O)c1ccccc1-2",
    "readoutType": "TGI",
    "reading": "2.12 µM"
  },
  {
    "compound": "O=C1NC(N2CCCC(CO)C2)=N/C1=C\\c1ccccc1 (stereo unspecified)",
    "readoutType": "TGI",
    "reading": "> 100 µM"
  },
  {
    "compound": "O=c1c2ccccc2[nH]c2c(O)ccc(O)c12",
    "readoutType": "TGI",
    "reading": "28.5 µM"
  },
  {
    "compound": "Cc1cc(N(CCC#N)CCC#N)ccc1N=Nc1cc(Cl)ccc1Cl",
    "readoutType": "TGI",
    "reading": "27.1 µM"
  },
  {
    "compound": "O=c1[nH]nc(-c2ccccc2)n1/N=C/c1ccco1",
    "readoutType": "TGI",
    "reading": "> 100 µM"
  },
  {
    "compound": "CCOC(=O)c1nc2ccccc2nc1NCc1ccc(OC)c(OC)c1",
    "readoutType": "TGI",
    "reading": "> 100 µM"
  },
  {
    "compound": "Cc1c(O)c(OC2OC(CO)C(O)C(O)C2O)cc2c1C=C[C@@H]1[C@@]2(C)C(=O)C[C@]2(C)[C@@H]([C@@](C)(O)C(O)/C=C/C(C)(C)O)[C@H](O)C[C@@]12C (stereo partly specified)",
    "readoutType": "TGI",
    "reading": "> 100 µM"
  },
  {
    "compound": "c1ccc(CN2CCc3[nH]c4ccccc4c3C2)cc1",
    "readoutType": "TGI",
    "reading": "> 78.7 µM"
  },
  {
    "compound": "O=[N+]([O-])C1=Cc2cc(Cl)ccc2OC1c1cccc2ccccc12 (stereo unspecified)",
    "readoutType": "TGI",
    "reading": "2.54 µM"
  },
  {
    "compound": "Cc1ccc(S(=O)(=O)NC(=O)NCCc2ccccc2)cc1",
    "readoutType": "TGI",
    "reading": "> 100 µM"
  },
  {
    "compound": "CCCCCCCCCCCCCCCCCCNCc1ccc(Cl)cc1",
    "readoutType": "TGI",
    "reading": "13.8 µM"
  },
  {
    "compound": "S=C=Nc1ccc(CSc2nc3ccccc3[nH]2)cc1",
    "readoutType": "TGI",
    "reading": "31.3 µM"
  }
]
